Each recorded value in this set is attributed to the supplement of paper PMC10567573.

B1: CAMK2A (parent)
chain: ILLVGYPPFWDEDQHRLYKQIKAG

Variants of: B1
MEASUREMENT_NOTES: protein stability index of a GFP-peptide fusion (GPS, HEK-293T) (PSI 1-6); higher = more stable;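 further: lentivirally expressed fusions sorted by FACS into six bins by GFP to DsRed ratio, PSI derived from sequencing read proportions per bin multiplied by bin number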
TEST_PARAMETERS: c terminus: a fixed tail appended
// label = 1 if protein stability index is not less than 2, otherwise -1

Solved cases (5 shown):
* D13V | 1
* G24M | -1
* I21T | -1
* Y18H | -1
* P7T | 1

[Q] Say whether I21S shows protein stability index of 2 or more.
[A] -1

[Q] Say whether L3S shows protein stability index of 2 or more.
[A] 1

[Q] Say whether F9S shows protein stability index of 2 or more.
[A] 1

[Q] Say whether K22V shows protein stability index of 2 or more.
[A] 1

[Q] Say whether D13E shows protein stability index of 2 or more.
[A] -1
